Tested on: 945468-187-T-J2-PDC spheroids viability
assay notes: Anticancer human tumor 945468-187-T-J2-PDC patient-derived rectal carcinoma cell line growth inhibition [PI3K]
conditions used: curve of first compound; second compound 0.01 µM; spheroids with HUVEC and MSC
result type: IC50

Some compounds with recorded IC50:
Cn1ncnc1[C@H]1c2n[nH]c(=O)c3cc(F)cc(c23)N[C@@H]1c1ccc(F)cc1 + CC(Nc1ccc2c(c1)OCCn1cc(N3C(=O)OCC3C(F)F)nc1-2)C(N)=O; > 0.1 µM
C#Cc1c(F)ccc2cc(O)cc(-c3ncc4c(N5CC6CCC(C5)N6)nc(OCC56CCCN5CC(F)C6)nc4c3F)c12 (stereo not given) + CC(Nc1ccc2c(c1)OCCn1cc(N3C(=O)OCC3C(F)F)nc1-2)C(N)=O; > 10 µM
C#Cc1c(F)ccc2cc(O)cc(-c3ncc4c(N5CC6CCC(C5)N6)nc(OCC56CCCN5CC(F)C6)nc4c3F)c12 (stereo not given) + COc1c(OCCCN2CCOCC2)ccc2c3n(c(=NC(=O)c4cnc(N)nc4)nc12)CCN3; > 10 µM
Cn1nccc1Nc1nccc(-c2ccn(C(CO)c3ccc(Cl)c(F)c3)c(=O)c2)n1 (stereo not given) + COc1c(OCCCN2CCOCC2)ccc2c3n(c(=NC(=O)c4cnc(N)nc4)nc12)CCN3; > 10 µM
CC1(C)CCC(Nc2ncc(C(F)(F)F)c(-c3c[nH]c4c(P(C)(C)=O)c(C#N)ccc34)n2)CN1 (stereo not given) + COc1c(OCCCN2CCOCC2)ccc2c3n(c(=NC(=O)c4cnc(N)nc4)nc12)CCN3; 0.871 µM
Cn1cnc2c(F)c(Nc3ccc(Br)cc3Cl)c(C(=O)NOCCO)cc21 + CC(Nc1ccc2c(c1)OCCn1cc(N3C(=O)OCC3C(F)F)nc1-2)C(N)=O; > 3 µM

// next item, IC50 requested
response.value for CCN1CCN(Cc2ccc(Nc3ncc(F)c(-c4cc(F)c5nc(C)n(C(C)C)c5c4)n3)nc2)CC1 + COc1c(OCCCN2CCOCC2)ccc2c3n(c(=NC(=O)c4cnc(N)nc4)nc12)CCN3 (field: IC50) = > 1 µM

---

System: 945468-187-T-J2-PDC spheroids viability
assay notes: Anticancer human tumor 945468-187-T-J2-PDC cell line growth inhibition [PI3K];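 also: spheroids exposed to compounds for seven days before reading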
conditions used: curve of first compound; second compound 0.01 µM; spheroids with HUVEC and MSC
IC50 values, listed per item

Some compounds with recorded IC50:
CC1(C)CCC(Nc2ncc(C(F)(F)F)c(-c3c[nH]c4c(P(C)(C)=O)c(C#N)ccc34)n2)CN1 (stereo not drawn) + CC(Nc1ccc2c(c1)OCCn1cc(N3C(=O)OCC3C(F)F)nc1-2)C(N)=O; 1310 nM
CCN1CCN(Cc2ccc(Nc3ncc(F)c(-c4cc(F)c5nc(C)n(C(C)C)c5c4)n3)nc2)CC1 + CC(Nc1ccc2c(c1)OCCn1cc(N3C(=O)OCC3C(F)F)nc1-2)C(N)=O; > 1000 nM

// next item, IC50 requested
response.value for CC(=O)c1c(C)c2cnc(Nc3ccc(N4CCNCC4)cn3)nc2n(C2CCCC2)c1=O + CC(Nc1ccc2c(c1)OCCn1cc(N3C(=O)OCC3C(F)F)nc1-2)C(N)=O (field: IC50) = > 100 nM

Recorded values, source PubChem BioAssay AID1963972.
